test system: 777334-354-R2-J4-PDC tumor spheroids with HUVEC/MSC, viability; assay: Anticancer human tumor 777334-354-R2-J4-PDC patient-derived pancreatic adenocarcinoma cell line growth inhibition [GQUAD]; conditions: curve of first compound; second compound 1 µM
Friendly reminder: IC50 below 500 nM is label 1, at or above is label 0.

IC50 strictly < 500 nM for this compound? Cc1cccc(N(C)C(=O)C2C(O)CCN2c2nc(C)cc(C(F)(F)F)c2C#N)c1 (stereo not given) + Cc1cnc(CNC(=O)c2c(=O)c3ccc(N4CCCN(C)CC4)nc3n3c2sc2ccccc23)cn1
label 0

IC50 strictly < 500 nM for this compound? C#Cc1c(F)ccc2cc(O)cc(-c3ncc4c(N5CC6CCC(C5)N6)nc(OCC56CCCN5CC(F)C6)nc4c3F)c12 (stereo not given) + CN(C)c1ccc(Nc2c3ccc(NC(=O)CCN4CCCC4)cc3nc3cc(NC(=O)CCN4CCCC4)ccc23)cc1
label 1

IC50 strictly < 500 nM for this compound? CC1COCCN1c1cc(-c2ccnn2C)c2ccnc(-c3ccn[nH]3)c2n1 (stereo not given) + Cc1cnc(CNC(=O)c2c(=O)c3ccc(N4CCCN(C)CC4)nc3n3c2sc2ccccc23)cn1
label 1

IC50 strictly < 500 nM for this compound? CC1COCCN1c1cc(C2(S(C)(=N)=O)CC2)nc(-c2ccnc3[nH]ccc23)n1 (stereo not given) + Cc1cnc(CNC(=O)c2c(=O)c3ccc(N4CCCN(C)CC4)nc3n3c2sc2ccccc23)cn1
label 0

IC50 strictly < 500 nM for this compound? Nc1ccn(C2OC(CO)C(O)C2(F)F)c(=O)n1 (stereo not given) + CN(C)c1ccc(Nc2c3ccc(NC(=O)CCN4CCCC4)cc3nc3cc(NC(=O)CCN4CCCC4)ccc23)cc1
label 1

IC50 strictly < 500 nM for this compound? COc1cccc2c1C(=O)c1c(O)c3c(c(O)c1C2=O)CC(O)(C(=O)CO)CC3OC1CC(N)C(O)C(C)O1 (stereo not given) + Cc1[nH]c2ccc(F)cc2c1-c1nc2c3cccnc3c3ncccc3c2[nH]1
label 0

----------
viability, T/C overview
tested on: 777334-354-R2-J4-PDC tumor spheroids with HUVEC/MSC, viability; test: Anticancer human tumor 777334-354-R2-J4-PDC cell line growth inhibition [GQUAD]; details: second compound 10 µM; first compound 3.16 µM; stronger effect = lower value;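 also: spheroids exposed to compounds for 7 days before readout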
Numbers only; they are read as %.

Example results:
| compound | viability, T/C / % |
| --- | --- |
| CC(=O)O[C@H]1C(=O)[C@@]2(C)[C@H]([C@H](OC(=O)c3ccccc3)[C@]3(O)C[C@H](OC(=O)[C@H](O)[C@@H](NC(=O)c4ccccc4)c4ccccc4)C(C)=C1C3(C)C)[C@]1(OC(C)=O)CO[C@@H]1C[C@@H]2O + Cc1cnc(CNC(=O)c2c(=O)c3ccc(N4CCCN(C)CC4)nc3n3c2sc2ccccc23)cn1 | 60.6 |
| Nc1ccn(C2OC(CO)C(O)C2(F)F)c(=O)n1 (stereo not given) + Cc1[nH]c2ccc(F)cc2c1-c1nc2c3cccnc3c3ncccc3c2[nH]1 | 8.66 |
| COc1ccc([C@@H](O)c2cc(-c3ncnc4cc(N5CCOCC5)ccc34)c(F)cc2Cl)nn1 + Cc1cnc(CNC(=O)c2c(=O)c3ccc(N4CCCN(C)CC4)nc3n3c2sc2ccccc23)cn1 | 28.6 |
| C=CCn1c(=O)c2cnc(Nc3ccc(N4CCN(C)CC4)cc3)nc2n1-c1cccc(C(C)(C)O)n1 + CN(C)c1ccc(Nc2c3ccc(NC(=O)CCN4CCCC4)cc3nc3cc(NC(=O)CCN4CCCC4)ccc23)cc1 | 34.1 |

We next turn to a different compound, shown below.
Supply recorded viability, T/C for COc1cc(C2c3cc4c(cc3C(OC3OC5COC(C)OC5C(O)C3O)C3COC(=O)C23)OCO4)cc(OC)c1O (stereo not given) + Cc1[nH]c2ccc(F)cc2c1-c1nc2c3cccnc3c3ncccc3c2[nH]1 here.
16

----------
System: 777334-354-R2-J4-PDC tumor spheroids with HUVEC/MSC, viability
Test: Anticancer human tumor 777334-354-R2-J4-PDC cell line growth inhibition [GQUAD];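 also: spheroids exposed to compounds for 7 days before readout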
Details: second compound 3.16 µM; first compound 1 µM; stronger effect = lower value
Text: DNA G-quadruplex Stabilizer Agents in Combinations in Complex Spheroids A high-throughput screen of multi-cell type tumor spheroids was designed to identify active combinations of DNA G-quadruplex stabilizer agents and targeted small molecules. […] Compounds. […] If the clinical Cmax for an agent had not been determined, the highest concentration tested was 10 microM. […]
measure.name: viability, T/C (%)
Numbers only; they are read as %.

Example results:
| compound | viability, T/C, % |
| --- | --- |
| Nc1ccn(C2OC(CO)C(O)C2(F)F)c(=O)n1 (stereo not given) + Cc1cnc(CNC(=O)c2c(=O)c3ccc(N4CCCN(C)CC4)nc3n3c2sc2ccccc23)cn1 | 43.9 |
| CC(=O)O[C@H]1C(=O)[C@@]2(C)[C@H]([C@H](OC(=O)c3ccccc3)[C@]3(O)C[C@H](OC(=O)[C@H](O)[C@@H](NC(=O)c4ccccc4)c4ccccc4)C(C)=C1C3(C)C)[C@]1(OC(C)=O)CO[C@@H]1C[C@@H]2O + Cc1[nH]c2ccc(F)cc2c1-c1nc2c3cccnc3c3ncccc3c2[nH]1 | 17.4 |
| CC1COCCN1c1cc(-c2ccnn2C)c2ccnc(-c3ccn[nH]3)c2n1 (stereo not given) + Cc1[nH]c2ccc(F)cc2c1-c1nc2c3cccnc3c3ncccc3c2[nH]1 | 11.1 |
| O=c1[nH]cc(F)c(=O)[nH]1 + Cc1cnc(CNC(=O)c2c(=O)c3ccc(N4CCCN(C)CC4)nc3n3c2sc2ccccc23)cn1 | 61.6 |
| C#Cc1c(F)ccc2cc(O)cc(-c3ncc4c(N5CC6CCC(C5)N6)nc(OCC56CCCN5CC(F)C6)nc4c3F)c12 (stereo not given) + CN(C)c1ccc(Nc2c3ccc(NC(=O)CCN4CCCC4)cc3nc3cc(NC(=O)CCN4CCCC4)ccc23)cc1 | 24.2 |

Supply recorded viability, T/C for CC(=O)O[C@H]1C(=O)[C@@]2(C)[C@H]([C@H](OC(=O)c3ccccc3)[C@]3(O)C[C@H](OC(=O)[C@H](O)[C@@H](NC(=O)c4ccccc4)c4ccccc4)C(C)=C1C3(C)C)[C@]1(OC(C)=O)CO[C@@H]1C[C@@H]2O + Cc1cnc(CNC(=O)c2c(=O)c3ccc(N4CCCN(C)CC4)nc3n3c2sc2ccccc23)cn1 here.
58.4

Supply recorded viability, T/C for COc1ccc([C@@H](O)c2cc(-c3ncnc4cc(N5CCOCC5)ccc34)c(F)cc2Cl)nn1 + Cc1cnc(CNC(=O)c2c(=O)c3ccc(N4CCCN(C)CC4)nc3n3c2sc2ccccc23)cn1 here.
45.6

Supply recorded viability, T/C for C#Cc1c(F)ccc2cc(O)cc(-c3ncc4c(N5CC6CCC(C5)N6)nc(OCC56CCCN5CC(F)C6)nc4c3F)c12 (stereo not given) + Cc1cnc(CNC(=O)c2c(=O)c3ccc(N4CCCN(C)CC4)nc3n3c2sc2ccccc23)cn1 here.
19.2

Supply recorded viability, T/C for COc1ncnc(C2CC2)c1-c1ncc2cnn(Cc3ccc(-c4nc(C(F)(F)F)cn4C(C)C)cc3)c2n1 + Cc1[nH]c2ccc(F)cc2c1-c1nc2c3cccnc3c3ncccc3c2[nH]1 here.
43.5

Supply recorded viability, T/C for O=C(NO)c1cnc(N2CCN(S(=O)(=O)c3ccc4ccccc4c3)CC2)nc1 + Cc1cnc(CNC(=O)c2c(=O)c3ccc(N4CCCN(C)CC4)nc3n3c2sc2ccccc23)cn1 here.
31.5

----------
system: 777334-354-R2-J4-PDC tumor spheroids with HUVEC/MSC, viability; assay: Anticancer human tumor 777334-354-R2-J4-PDC cell line growth inhibition [GQUAD]; conditions: second compound 10 µM; first compound 3.16 µM; stronger effect = lower value;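 also: spheroids exposed to compounds for 7 days before readout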
measure.name: viability, T/C (%)
Numbers only; they are read as %.

Example results:
| compound | viability, T/C [%] |
| --- | --- |
| CC1COCCN1c1cc(C2(O)CC3CCC(C2)O3)c2cnn(-c3ccn[nH]3)c2n1 (centres undefined) + CN(C)c1ccc(Nc2c3ccc(NC(=O)CCN4CCCC4)cc3nc3cc(NC(=O)CCN4CCCC4)ccc23)cc1 | 25.5 |
| COc1ccc([C@@H](O)c2cc(-c3ncnc4cc(N5CCOCC5)ccc34)c(F)cc2Cl)nn1 + CN(C)c1ccc(Nc2c3ccc(NC(=O)CCN4CCCC4)cc3nc3cc(NC(=O)CCN4CCCC4)ccc23)cc1 | 32.9 |

Supply recorded viability, T/C for Cc1cccc(N(C)C(=O)C2C(O)CCN2c2nc(C)cc(C(F)(F)F)c2C#N)c1 (centres undefined) + Cc1cnc(CNC(=O)c2c(=O)c3ccc(N4CCCN(C)CC4)nc3n3c2sc2ccccc23)cn1 here.
64.5

Supply recorded viability, T/C for CC(=O)O[C@H]1C(=O)[C@@]2(C)[C@H]([C@H](OC(=O)c3ccccc3)[C@]3(O)C[C@H](OC(=O)[C@H](O)[C@@H](NC(=O)c4ccccc4)c4ccccc4)C(C)=C1C3(C)C)[C@]1(OC(C)=O)CO[C@@H]1C[C@@H]2O + CN(C)c1ccc(Nc2c3ccc(NC(=O)CCN4CCCC4)cc3nc3cc(NC(=O)CCN4CCCC4)ccc23)cc1 here.
41.8

Origin of the recorded values: PubChem BioAssay AID2060499
